Listing: pEC50 of selected molecules
# Tested on: Ba/F3-WT (wild type) cells
# ASSAY DETAILS: Ba/F3 Proliferation Assay, Ba/F3-WT (wild type) cells with mIL-3 (Resazurin)
# Assay type: cell-based
# MEASUREMENT CONDITIONS: Mus musculus, BaF3, 48 h, Ba/F3-WT cells +mIL-3, 48-hour incubation
Please keep in mind that pEC50 is minus log10 of the molar concentration; only the number is needed.

Some solved cases for reference:
INSERT INTO measurements (molecule, experimental_result) VALUES
  ('Cn1cc(-c2cc3ncccc3c(OCC3CNCCO3)n2)cn1 (stereo not shown)', 5.90),
  ('CC(C)(C)[C@@H]1CNC[C@@H](COc2nc(-c3cnn(C(C)(C)C)c3)cc3ncccc23)O1', 6.20);

Now turn to the next molecule.
Query: # lookup: pEC50 of COCCn1ccc(-c2cc3ncccc3c(O[C@H](C)[C@@H]3CNCCO3)n2)c1
Reply: 5.84

====

Listing: pEC50 of selected compounds
# System: Ba/F3-WT (wild type) cells
# ASSAY DETAILS: Ba/F3 Proliferation Assay, Ba/F3-WT (wild type) cells with mIL-3 (Resazurin)
# Assay type: cell-based
# MEASUREMENT CONDITIONS: Mus musculus, BaF3, 48 h, Ba/F3-WT cells +mIL-3, 48-hour incubation
Please keep in mind that pEC50 is minus log10 of the molar concentration; only the number is needed.

Query: # lookup: pEC50 of CC1(C)CNC[C@@H](COc2nc(-c3ccn(CC4CC4)c3)cc3ncccc23)O1
Reply: 5.63

Query: Would you kindly repeat that for FC(F)Cn1ccc(-c2cc(OC[C@@H]3CNCC4(CCC4)O3)c3nccnc3c2)c1 ?
Reply: 6.06

Query: Would you kindly repeat that for Cc1ncc(-c2cc3ncccc3c(OC[C@@H]3CNCCO3)n2)s1 ?
Reply: 5.16

Query: Would you kindly repeat that for CC(C)(C)n1cc(-c2cc(OC[C@@H]3CNCCCO3)c3cccnc3c2)cn1 ?
Reply: 5.19

Query: Would you kindly repeat that for C[C@@H]1NCCO[C@@H]1COc1nc(-c2cnn(C3(C)CC3)c2)cc2ncccc12 ?
Reply: 6.29

Query: Would you kindly repeat that for Cn1ccc(-c2cc(OC[C@@H]3CNCCCO3)c3cccnc3c2)c1 ?
Reply: 5.01

Query: Would you kindly repeat that for CCn1ccc(-c2cc(OC[C@@H]3CNCC(C)(C)O3)c3nccnc3c2)c1 ?
Reply: 6.02

====

Listing: EC50 of selected compounds
# SYSTEM: Ba/F3-Syk cells (Homo sapiens)
# Construct: fused on or other part: Possible but unprinted fusion partner: TEL (ETV6), the usual partner for Ba/F3 lines transformed by Syk; Nothing on a partner is printed
# ASSAY DETAILS: Ba/F3 Proliferation Assay, Ba/F3-Syk cells (Resazurin)
# MEASUREMENT CONDITIONS: 48-hour incubation
Give the quantity in nM, number only.

INSERT INTO measurements (compound, measure_unit, experimental_result) VALUES
  ('C[C@@H](Oc1nc(-c2cnn(C)c2)cc2ncccc12)[C@@H]1CNCC(C)(C)O1', 'nM', 34.2),
  ('CC(C)(C)n1cc(-c2cc3ncccc3c(OCC3CNCCCO3)n2)cn1 (centres unmarked)', 'nM', 48),
  ('Cn1cc(-c2cc3ncccc3c(OC[C@@H]3CNCC(C)(C)O3)n2)cn1', 'nM', 48.4),
  ('CC(C)(C)n1cc(-c2cc3ncccc3c(OC[C@@H]3CNC[C@@H](C(F)F)O3)n2)cn1', 'nM', 17.8),
  ('CC1(C)CNC[C@@H](COc2nc(-c3cnn(CC4CC(F)(F)C4)c3)cc3ncccc23)O1', 'nM', 25.9);

Query: # lookup: EC50 of COCCn1ccc(-c2cc(OC[C@@H]3CNCC(C)(C)O3)c3nccnc3c2)c1
Reply: 8.2

Query: Would you kindly repeat that for CC(C)n1cc(-c2cc3ncccc3c(OC[C@@H]3CNCC(C)(C)CO3)n2)cn1 ?
Reply: 86.1

Query: Would you kindly repeat that for CC(C)(C)n1cc(-c2cc(OC[C@@H]3CNCCCO3)c3cccnc3c2)cn1 ?
Reply: 54.5

====

# Test system: Ba/F3-WT (wild type) cells
# ASSAY DETAILS: Ba/F3 Proliferation Assay, Ba/F3-WT (wild type) cells with mIL-3 (Resazurin)
# Format: cell-based
# MEASUREMENT CONDITIONS: Mus musculus, BaF3, 48 h, Ba/F3-WT cells +mIL-3, 48-hour incubation
PROPERTY NAME: EC50 (nM)
Give the quantity in nM, number only.

Some solved cases for reference:
INSERT INTO assay_data (molecule, property_name, experimental_result) VALUES
  ('CC(F)(F)Cn1cc(-c2cc3ncccc3c(OC[C@@H]3CNCCO3)n2)cn1', 'EC50', 1440),
  ('CC(C)(C)n1cc(-c2cc3ncccc3c(OC[C@@H]3CNC[C@H](C4CC4)O3)n2)cn1', 'EC50', 1070);

Now turn to the next compound.
Query: # lookup: EC50 of CC(C)n1cc(-c2cc(OC[C@@H]3CNCC4(CCC4)O3)c3cccnc3c2)cn1
Reply: 551

====

# Tested on: Ba/F3-WT (wild type) cells
# ASSAY DETAILS: Ba/F3 Proliferation Assay, Ba/F3-WT (wild type) cells with mIL-3 (Resazurin)
# Assay type: cell-based
# MEASUREMENT CONDITIONS: Mus musculus, BaF3, 48 h, Ba/F3-WT cells +mIL-3, 48-hour incubation
PROPERTY NAME: pEC50
Please keep in mind that pEC50 is minus log10 of the molar concentration; only the number is needed.

Some solved cases for reference:
INSERT INTO results (molecule, experimental_result) VALUES
  ('CC(C)(C)n1ccc(-c2cc3ncccc3c(OC[C@@H]3CNCCO3)n2)c1 [Compound 2.58]', 5.17),
  ('CC(C)[C@@H]1CNC[C@@H](COc2nc(-c3cnn(C(C)(C)C)c3)cc3ncccc23)O1 [Compound 2.98]', 6.07),
  ('C[C@@H]1CNC[C@@H](COc2cc(-c3ccn(C(C)(C)C)c3)cc3nccnc23)O1 [Compound 12.8]', 6.15);

Now turn to the next molecule.
Query: # lookup: pEC50 of COCCn1ccc(-c2cc(OC[C@@H]3CNCCO3)c3cccnc3c2)c1 [Compound 7.9]
Reply: 5.61

====

Listing: EC50 of selected compounds
# Test system: Ba/F3-WT (wild type) cells
# ASSAY DETAILS: Ba/F3 Proliferation Assay, Ba/F3-WT (wild type) cells with mIL-3 (Resazurin)
# Assay type: cell-based
# MEASUREMENT CONDITIONS: Mus musculus, BaF3, 48 h, Ba/F3-WT cells +mIL-3, 48-hour incubation
Give the quantity in µM, number only.

Some solved cases for reference:
INSERT INTO assay_data (compound, property_name, measure_unit, experimental_result) VALUES
  ('COCCn1ccc(-c2cc(OC[C@@H]3CNCC4(CC4)O3)c3cccnc3c2)c1 [Compound 7.14]', 'EC50', 'µM', 3.21),
  ('CC(C)(C)c1ccc(-c2cc(OC[C@@H]3CNCCO3)c3cccnc3c2)s1 [Compound 14.5]', 'EC50', 'µM', 1.2),
  ('CC1(C)CNC[C@@H](COc2cc(-c3cnn4c3CCCC4)cc3ncccc23)O1 [Compound 11.2]', 'EC50', 'µM', 8.46),
  ('CCn1ccc(-c2cc(OC[C@@H]3CNCC4(CCC4)O3)c3nccnc3c2)c1 [Compound 8.16]', 'EC50', 'µM', 0.822);

Now turn to the next compound.
Query: # lookup: EC50 of Cn1ccc(-c2cc3ncccc3c(OC[C@@H]3CNCCO3)n2)c1 [Compound 2.20]
Reply: 4.17

====

# SYSTEM: Ba/F3-Syk cells (Homo sapiens)
# Construct: fused on or other part: Possible but unprinted fusion partner: TEL (ETV6), the usual partner for Ba/F3 lines transformed by Syk; Nothing on a partner is printed
# ASSAY DETAILS: Ba/F3 Proliferation Assay, Ba/F3-Syk cells (Resazurin)
# MEASUREMENT CONDITIONS: 48-hour incubation
Listing: EC50 of selected compounds
Give the quantity in nM, number only.

Query: # lookup: EC50 of CCn1ccc(-c2cc(O[C@H](C)[C@@H]3CNCC(C)(C)O3)c3nccnc3c2)c1
Reply: 7.8

Query: Would you kindly repeat that for CC(C)n1ccc(-c2cc(OC[C@@H]3CNCCO3)c3nccnc3c2)c1 ?
Reply: 6.97

Query: Would you kindly repeat that for FC(F)Cn1ccc(-c2cc(OC[C@@H]3CNCC4(CCC4)O3)c3nccnc3c2)c1 ?
Reply: 6.4

Query: Would you kindly repeat that for COCCn1cc(-c2cc3ncccc3c(OC[C@@H]3CNCCO3)n2)cn1 ?
Reply: 196

Query: Would you kindly repeat that for CC[C@@H](C)n1cc(-c2cc3ncccc3c(OC[C@@H]3CNCC(C)(C)O3)n2)cn1 ?
Reply: 49.3

Query: Would you kindly repeat that for Cn1cccc1-c1cc2ncccc2c(OC[C@@H]2CNCCO2)n1 ?
Reply: 1450

Query: Would you kindly repeat that for C[C@@H](Oc1cc(-c2cnn(C(C)(C)C)c2)cc2ncccc12)[C@@H]1CNCCO1 ?
Reply: 81.8

Query: Would you kindly repeat that for CC1(C)CNC[C@H](COc2nc(-c3cnn(C(C)(C)C)c3)cc3ncccc23)O1 ?
Reply: 127
